Test: qHTS Assay for inhibitors of the human cytomegalovirus (HCMV); also: % is scaled to controls: 0 for no effect and ±100 for the full control effect
Details: HFF cells, HCMV-luciferase reporter, 72 h; at 57.5 µM; hits give low values
The whole screen tested about 410,000 compounds, of which about 18,000 (4.4%) were called active. Roughly 7% stayed inconclusive and do not appear here. For the sample, actives were picked, then their nearest neighbours and some compounds at random.
value type: activity change, negative = inhibition (%)
Provide the reading as a plain figure in %.

activity change, negative = inhibition lookup needed for COc1cc(Cl)c(NC(=O)C(NS(=O)(=O)c2cccs2)C(C)C)c(OC)c1 (configuration not stated) , thanks.
-10.2

activity change, negative = inhibition lookup needed for CCOC(=O)c1cc2c(=O)n3ccccc3nc2n(CC2CCCO2)c1=NC(=O)c1ccccc1F (configuration not stated) , thanks.
5.02

activity change, negative = inhibition lookup needed for CSc1ncccc1C(=O)N1CCCC(CCC(=O)NCc2ccccc2F)C1 (configuration not stated) , thanks.
-1.95

activity change, negative = inhibition lookup needed for CCCCN(CC)CCCNC(=O)c1nn(C)c2c1CSc1ccccc1-2 , thanks.
-32.8

activity change, negative = inhibition lookup needed for COc1ccccc1Nc1nc(N)nc(CSC(=S)N2CCOCC2)n1 , thanks.
37.2

activity change, negative = inhibition lookup needed for CCCSc1nc(NCc2ccco2)c2c3c(sc2n1)COC(C)(CC)C3 (configuration not stated) , thanks.
-2.99

activity change, negative = inhibition lookup needed for O=C(C(=O)N1CCN(c2ccccc2)CC1)c1ccc2c(c1)OCO2 , thanks.
-64.4

activity change, negative = inhibition lookup needed for COc1ccccc1-c1nnc(SCC(N)=O)o1 , thanks.
64.6

activity change, negative = inhibition lookup needed for O=C(NCc1cccc(C(F)(F)F)c1)c1cccc(S(=O)(=O)N2CCN(Cc3ccccc3)CC2)c1 , thanks.
0.707

activity change, negative = inhibition lookup needed for O=[N+]([O-])c1cc([N+](=O)[O-])c2cccnc2c1O , thanks.
-19.7

activity change, negative = inhibition lookup needed for O=C(NCc1ccccc1CN1CCCC1)c1cccc(S(=O)(=O)Nc2ccc(F)cc2)c1 , thanks.
56.8

activity change, negative = inhibition lookup needed for CCN(CC)c1ccc(C(=O)NNC(=O)CCc2nc3ccccc3c(=O)[nH]2)cc1 , thanks.
-64.9

activity change, negative = inhibition lookup needed for CCOC(=O)C1SC2(C(F)(F)C(F)F)CC1(O)c1c(c(OC)c3occc3c1OC)O2 (configuration not stated) , thanks.
-23.2

activity change, negative = inhibition lookup needed for CCN(Cc1nc2ccccc2c(=O)[nH]1)Cc1cc(=O)oc2cc(C)c(C)cc12 , thanks.
17.8

activity change, negative = inhibition lookup needed for COCc1c(C(=O)N/N=C/C2CC=CCC2)nnn1-c1nonc1N (configuration not stated) , thanks.
65.4

activity change, negative = inhibition lookup needed for COc1ccccc1Oc1ccc(S(=O)(=O)Nc2cccnc2)cc1 , thanks.
-79.4

activity change, negative = inhibition lookup needed for O=C(CCn1nnc2ccccc21)OCC(=O)c1ccc([N+](=O)[O-])cc1 , thanks.
2.27

activity change, negative = inhibition lookup needed for COc1cc2c(=O)c(S(=O)(=O)c3ccc(C(C)C)cc3)cn(Cc3ccccc3C)c2cc1OC , thanks.
23.6

activity change, negative = inhibition lookup needed for Cc1nnc(SCC(=O)N(C(C)C)C(C)C)nc1C , thanks.
-39.9

activity change, negative = inhibition lookup needed for O=[N+]([O-])c1cccc(/C([O-])=C(/C(=S)Nc2ccccc2F)[n+]2ccccc2)c1 , thanks.
18

activity change, negative = inhibition lookup needed for Cc1cccc(C)c1NC(=O)CNC(=O)c1ccc(N2CCOCC2)c([N+](=O)[O-])c1 , thanks.
25.4

activity change, negative = inhibition lookup needed for COc1ccc(S(=O)(=O)Nc2cccnc2)c(Cl)c1Cl , thanks.
-8.35

activity change, negative = inhibition lookup needed for COc1ccc(C(=O)N2CCCCC2C(=O)Nc2ccc(-n3nc(C)cc3C)cc2)o1 (configuration not stated) , thanks.
7.64

activity change, negative = inhibition lookup needed for Fc1cccc(-n2ncc3c2ncn2nc(-c4ccccc4Cl)nc32)c1 , thanks.
-25.2

activity change, negative = inhibition lookup needed for Cc1cc2c(cc1C)N1C(=O)c3cc4ccccc4cc3NC(=O)C1C(=O)N2 (configuration not stated) , thanks.
-73.2

activity change, negative = inhibition lookup needed for CCOc1ccccc1CNC(=O)c1ccc2c(c1)nc1n2CCC(C)C1 (configuration not stated) , thanks.
33.3

activity change, negative = inhibition lookup needed for N#Cc1ccccc1NC(=O)COc1c(Br)cc(Br)c2cccnc12 , thanks.
85.2

activity change, negative = inhibition lookup needed for CCC(=O)Nc1cccc(-c2nc3cc(C)ccc3o2)c1 , thanks.
103

activity change, negative = inhibition lookup needed for COC(=O)[C@@H]1[C@@H](CO)[C@@H]2Cn3c(cccc3=O)[C@H]1N2CC1CCCC1 , thanks.
13.6

activity change, negative = inhibition lookup needed for COc1ccccc1N1CCN(C(=O)C2CCN(S(=O)(=O)c3c(C)noc3/C=C/c3ccc(C)cc3)CC2)CC1 , thanks.
1.7

activity change, negative = inhibition lookup needed for COc1cccc(OCCOc2cccc(/C=N/n3cnnc3)c2)c1 , thanks.
27

activity change, negative = inhibition lookup needed for O=C(NCc1ccncc1)c1ccc(NS(=O)(=O)c2cccc([N+](=O)[O-])c2)cc1 , thanks.
-29

activity change, negative = inhibition lookup needed for COc1ccc(C(=O)NC2CC(C)(C)NC(C)(C)C2)cc1OC , thanks.
7.69

activity change, negative = inhibition lookup needed for O=C(c1ccc2c(c1)OCO2)N1CCNc2ccccc2C1 , thanks.
-3.54

activity change, negative = inhibition lookup needed for COc1ccc(CN2C(=O)C(NC(=O)c3cccc(C)c3)(C(F)(F)F)N=C2c2ccccc2)cc1 (configuration not stated) , thanks.
-8.44

activity change, negative = inhibition lookup needed for C[C@@H]1CC2=C(C(=O)OC(C)(C)O2)[C@@H](C2CC2)O1 , thanks.
7.2

activity change, negative = inhibition lookup needed for O=C(NCc1ccccc1)c1ccc(S(=O)(=O)Nc2cccc(C(F)(F)F)c2)cc1 , thanks.
-62

activity change, negative = inhibition lookup needed for Cn1c(=O)c2c(SCC(=O)N3CCc4ccccc43)nc(-c3ccc(Cl)cc3)nc2n(C)c1=O , thanks.
17.9

activity change, negative = inhibition lookup needed for Cc1cccc(C(=O)Nc2ccc(S(=O)(=O)N3CCCCC3c3cccnc3)cc2)c1 (configuration not stated) , thanks.
-34.9

activity change, negative = inhibition lookup needed for Cn1cncc1-c1cc2cnc(Nc3ccc(OC(F)(F)F)cc3)cc2[nH]1 , thanks.
-21.4

activity change, negative = inhibition lookup needed for COc1cc2c(cc1OC)C(=O)NCC(C)(C)O2 , thanks.
-102

activity change, negative = inhibition lookup needed for CCOc1ccc(N(CC)S(=O)(=O)N2CCCC(C(=O)NCc3ccc(SC)cc3)C2)cc1 (configuration not stated) , thanks.
-31

---

Assay: qHTS Assay for inhibitors of the human cytomegalovirus (HCMV); also: % is scaled to controls: 0 for no effect and ±100 for the full control effect
Settings: HFF cells, HCMV-luciferase reporter, 72 h; at 57.5 µM; hits give low values
Method: NCGC Assay Overview: Infection with human cytomegalovirus (HCMV) continues to pose significant threats for pregnant women and immunocompromised hosts. […] This is a cell-based assay for HCMV inhibition in HFFs cells. […] At 72 h post infection cell lysates were collected and luciferase activity was determined using the Glomax-Multi + Detection System (Promega, Madison, WI). […]
In all, about 410,000 compounds went through this assay and about 18,000 (4.4%) were called active. Inconclusive results (about 7%) are left out. The entries come from a sample that favours actives as a whole.
value type: activity change, negative = inhibition (%)
Provide the reading as a plain figure in %.

activity change, negative = inhibition lookup needed for Cc1cccc(C(=O)NCCc2nc3ccccc3n2Cc2ccccc2Cl)c1 , thanks.
3.18

activity change, negative = inhibition lookup needed for Oc1c(CN2CCN(c3ccc(F)cc3)CC2)cc(Cl)c2cccnc12 , thanks.
-102

activity change, negative = inhibition lookup needed for CCn1c(C(C)NC(=O)c2ccc(C)cc2)n[nH]c1=S (stereo unspecified) , thanks.
12.4

activity change, negative = inhibition lookup needed for Cc1ccc(CCNC(=O)c2nnc(Cc3cccc(F)c3)o2)cc1 , thanks.
-16.3

activity change, negative = inhibition lookup needed for Cc1cccc(C(=O)Nc2ccc(-c3nc4ccccc4s3)c(C)c2)c1 , thanks.
55.1

activity change, negative = inhibition lookup needed for COc1cc2c(cc1OC)C(COc1ccc(F)cc1)N(C(=O)c1ccccc1F)CC2 (stereo unspecified) , thanks.
-11.8

activity change, negative = inhibition lookup needed for CSc1nc(N(C)NC(=O)c2cccc(C)c2)c2ccccc2n1 , thanks.
-87.3

activity change, negative = inhibition lookup needed for CN(NC(=O)c1ccccc1F)c1nc(C(F)(F)F)nc2ccccc12 , thanks.
-62.6

activity change, negative = inhibition lookup needed for CCCNC(=O)c1ccc(N2CCC3(CC2)CC(c2cccc(Br)c2)=NO3)c(NC(=O)c2ccco2)c1 , thanks.
-2.24

activity change, negative = inhibition lookup needed for O=C(Cn1cnc2ccccc2c1=O)NNC(=O)c1ccccc1F , thanks.
-0.88

activity change, negative = inhibition lookup needed for CCCCN(CC)C(=O)CN(C)S(=O)(=O)c1cccc2nsnc12 , thanks.
0.246
